# Test system: NCI/ADR-RES ovarian
# method summary: NCI tumour cell line growth inhibition, 48 h
Quick reference: TGI of the listed items.
property name: TGI

molecule=Cc1c(C(=O)O)n(-c2ccc(Cl)cc2)c2ncnc(N)c12 result="> 100 µM"
molecule=COc1ccc(/C=C/C(=O)c2cccc(B(O)O)c2)cc1O result="28.6 µM"
molecule="O=C1c2ccccc2CCC1C(O)(C(F)(F)F)C(F)(F)F (stereo not given)" result="> 100 µM"
molecule="CCN(CC)CCOc1ccc(/C=C2\\CC3C4CC=C5C[C@@H](N6CCCC6)CC[C@]5(C)C4CC[C@]3(C)[C@H]2OC(C)=O)cc1OC (stereo not given in full)" result="1.93 µM"
molecule=N#CC(=N)c1ncn(CCO)c1NC(=O)C(F)(F)F result="> 100 µM"
molecule="COc1ccc(/C=C2/N=C(N/N=C\\C(O)C(O)C(O)C(O)CO)NC2=O)cc1 (stereo not given)" result="> 100 µM"
molecule=Cc1ccc(S(=O)(=O)NC(=O)Nc2ccc(C(=O)O)c(O)c2)cc1 result="> 100 µM"
molecule="COC(=O)CC1C(C)(C)C(=O)C2CC3=C4CC(=O)OC(c5ccoc5)C4(C)CCC3C1(C)C2=O (stereo not given)" result="> 100 µM"
molecule="CNC(=O)N(C1=NCC(C)S1)c1ccc(C)c(C)c1 (stereo not given)" result="> 20.4 µM"
molecule=CN(C(=O)CC(=O)CP(=O)(c1ccccc1)c1ccccc1)c1ccccc1 result="> 100 µM"

====

Quick reference: TGI of the listed items.
# Tested on: ACHN renal
# method summary: NCI tumour cell line growth inhibition, 48 h
property name: TGI (µM)

compound="COc1ccc(/C=C2/N=C(N/N=C\\C(O)C(O)C(O)C(O)CO)NC2=O)cc1 (stereo unspecified)" property_name=TGI value_units=µM qualifier_sign=> quantitative_readout=100
compound="O=C(OCCN1CCCCCC1)C(c1ccsc1)C1CCCCC1 (stereo unspecified)" property_name=TGI value_units=µM qualifier_sign== quantitative_readout=33.1
compound="O=C(CC1(O)C(=O)Nc2c(Cl)cc(Cl)cc21)c1ccco1 (stereo unspecified)" property_name=TGI value_units=µM qualifier_sign=> quantitative_readout=100
compound=C/C=N\n1c(C)n[nH]c1=O property_name=TGI value_units=µM qualifier_sign=> quantitative_readout=100
compound=c1ccc2cc(CN3CCC(C4CCN(Cc5ccc6ccccc6c5)CC4)CC3)ccc2c1 property_name=TGI value_units=µM qualifier_sign== quantitative_readout=17
compound=O=C(Nc1cccc(-c2cccc(F)c2)c1)C1CCN(Cc2cccc3cccnc23)CC1 property_name=TGI value_units=µM qualifier_sign== quantitative_readout=5.67
compound=Cc1nn2c(C(=O)N/N=C/c3ccccc3O)c(C)nc2s1 property_name=TGI value_units=µM qualifier_sign=> quantitative_readout=100
compound=c1ccc([P+](CCN2Cc3ccccc3C2)(c2ccccc2)c2ccccc2)cc1 property_name=TGI value_units=µM qualifier_sign== quantitative_readout=23.1
compound=COc1ccc(C=Nc2c(O)ccc3ccccc23)cc1OC property_name=TGI value_units=µM qualifier_sign=> quantitative_readout=100
compound="CCCCCCC[C@@H](O)CC(=O)NC(CC(C)C)C(=O)NC(CCC(=O)O)C(=O)NC1C(=O)NC(C(C)C)C(=O)NC(CC(C)C)C(=O)NC(CO)C(=O)NC(CC(C)C)C(=O)NC(CO)C(=O)NC(C(C)CC)C(=O)OC1C (stereo partly specified)" property_name=TGI value_units=µM qualifier_sign== quantitative_readout=25.7
compound="CC(=O)NC1C(OCc2ccccc2)OC(CO)C(O)C1OCC(=O)N1CCCC1C(=O)N[C@@H](CCC(=O)NCCNCCNc1c2ccccc2nc2cccc([N+](=O)[O-])c12)C(N)=O (stereo partly specified)" property_name=TGI value_units=µM qualifier_sign== quantitative_readout=15.3
compound=COc1ccc(S(=O)(=O)Nc2cc(/C=C\c3cc(OC)c(OC)c(OC)c3)cc(OC)c2OC)cc1 property_name=TGI value_units=µM qualifier_sign== quantitative_readout=23.2
compound=COc1ccc2c(c1)C(=O)c1c-2n(CCCNCCO)c(=O)c2ccccc12 property_name=TGI value_units=µM qualifier_sign== quantitative_readout=0.24
compound=O=Cc1cc2c(s1)C(=O)c1sccc1C2=O property_name=TGI value_units=µM qualifier_sign== quantitative_readout=1.77
compound=CCOC(=O)/C=C/C1=C(c2csc3ccccc23)c2ccccc2CC1 property_name=TGI value_units=µM qualifier_sign=> quantitative_readout=100
compound=COc1cccc2c1-c1ccccc1C2=O property_name=TGI value_units=µM qualifier_sign=> quantitative_readout=100
compound="Nc1nc(N)c2cc(CNc3ccc(C(=O)NC(CC(=O)O)C(=O)O)cc3)ccc2n1 (stereo unspecified)" property_name=TGI value_units=µM qualifier_sign=> quantitative_readout=100
compound=Cc1c(C(N)=O)sc2c1c(=O)n(Cc1ccccc1)c1nnc(SCC(=O)Nc3ccc(Cl)cc3)n21 property_name=TGI value_units=µM qualifier_sign=> quantitative_readout=100
compound=O=C(CON1C(=O)c2ccccc2C1=O)c1ccccc1 property_name=TGI value_units=µM qualifier_sign=> quantitative_readout=100
compound=CN1CCN(c2ccc3nc(-c4c5cccccc-5[nH]c4=O)[nH]c3c2)CC1 property_name=TGI value_units=µM qualifier_sign== quantitative_readout=60.9
compound=CCc1n[nH]c(=O)n1NC(=O)CCCC(=O)O property_name=TGI value_units=µM qualifier_sign=> quantitative_readout=100
